- EXPERIMENTAL SYSTEM: T1, PUF4 RNA-binding domain (Saccharomyces cerevisiae, UniProt P25339 537-888)
- T1 sequence: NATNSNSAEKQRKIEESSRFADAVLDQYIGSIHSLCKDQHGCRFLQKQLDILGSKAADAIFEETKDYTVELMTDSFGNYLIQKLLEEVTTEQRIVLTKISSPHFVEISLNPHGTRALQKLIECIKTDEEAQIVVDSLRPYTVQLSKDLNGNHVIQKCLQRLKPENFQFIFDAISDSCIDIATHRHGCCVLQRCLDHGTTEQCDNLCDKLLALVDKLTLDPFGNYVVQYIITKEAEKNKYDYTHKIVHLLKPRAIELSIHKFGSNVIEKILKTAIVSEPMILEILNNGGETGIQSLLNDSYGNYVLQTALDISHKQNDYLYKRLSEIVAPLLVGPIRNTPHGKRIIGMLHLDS
- PROTOCOL: Mg; RNA-MaP; 20 mM Na-HEPES pH 7.4, 30 mM KOAc, 0.75 mM MgCl2, 0.1% Tween-20, 5% glycerol, 0.1 mg/mL BSA, 2 mM DTT; 25 C; 0.0125-409.6 nM protein
- RUN CONDITIONS: tags: N-His6-TEV cleaved; C-SNAP kept, Cy3B-labelled; label: tethered on chip by stalled RNA polymerase
Task for the reader: assign each of the following binders its reported pKd.
Recall that pKd is obtained by taking minus log10 of the concentration measured in molar.

Lookup: Form field: reported pKd of Ib_S4_P5E.1_K5.1_C5.1_H5.1_[T3C]_A5.1_[A7T]_F5.1_T5.1 (ssRNA) RNA: UUUGACAACUGAUCGUUCUUUCUUGCAUUUUUAUUCUUUCUCGAUCAGUUGUCUUU
Found: 6.38

Lookup: Suppose we examine the binder Id_ii_S2_P3E.3_K3.2_C3.2_H3.2_A3.1_F3.1_T3.2_[T9C]_[A10C] (ssRNA) RNA: UUUGAUUAAUAUGAUAUCGUUCUUUCUCUUAUAUAUACCUUCUUUCUCGAUAUCAUAUUAAUCUUU ; what pKd value has been reported?
Found: 6.94

Lookup: // pKd lookup, key: UCUCUUUGUACCUCGAUCUCUU (ssRNA) [Ic_S1_P5E.1_K5.1_C5.1_H5.1_A5.1_[T5C]_[T6C]_[A7T]_F5.1_[T8C]_[T9G]_T5.1]
Found: 6.18

Lookup: What value of pKd has been recorded for this entry: Ib_S2_P4E.1_K4.1_C4.1_H4.1_[T1A]_A4.1_[A6T]_F4.1_T4.1 (ssRNA) RNA: UUUGAUUAAUAUGAUAUCGUUCUUUCUAGUAUUUUAUUCUUUCUCGAUAUCAUAUUAAUCUUU
Found: 6.13

Lookup: pKd for Ib_S2_P5E.1_K5.1_C5.1_H5.1_A5.1_[T5C]_[T6A]_F5.1_T5.1 (ssRNA) RNA: UUUGAUUAAUAUGAUAUCGUUCUUUCUUGUACAAUUAUUCUUUCUCGAUAUCAUAUUAAUCUUU ?
Found: 8.71

Lookup: Data request, read-out pKd, for Ie_S4_P4E.1_K4.1_C4.1_H4.1_A4.1_[+6TCT]_F4.1_T4.1 (ssRNA) RNA: UUUGACAACUGAUCGUUCUUUCUUGUAUAUCUUUAUUCUUUCUCGAUCAGUUGUCUUU
Found: 8.06

Lookup: # get_value(readout='pKd', item= ACAAACUUACACUAUAGCACAAAC (ssRNA) [Id_ii_S3_P3E.4_K3.3_C3.2_[C-2T]_H3.3_A3.1_F3.1_T3.2_[T9G]_[A10C]] )
Found: 5.66
